The reported measurements were obtained from ChEMBL document CHEMBL2057199.

- protocol_notes: Plasma clearance in iv dosed rat
- Format: ADME, organism-based
quantity: clearance (mL/min/kg)
Numbers only, in mL/min/kg.

Which clearance value is on record for O=C(C1CN(S(=O)(=O)c2cccc3cnccc23)C1)N1CC2CN(c3ccncc3)CC2C1 (stereo unspecified) ?
68.6

* * *

- system_under_test: Muscarinic acetylcholine receptor M3 (Homo sapiens, UniProt P20309)
- Sequence (P20309 whole entry): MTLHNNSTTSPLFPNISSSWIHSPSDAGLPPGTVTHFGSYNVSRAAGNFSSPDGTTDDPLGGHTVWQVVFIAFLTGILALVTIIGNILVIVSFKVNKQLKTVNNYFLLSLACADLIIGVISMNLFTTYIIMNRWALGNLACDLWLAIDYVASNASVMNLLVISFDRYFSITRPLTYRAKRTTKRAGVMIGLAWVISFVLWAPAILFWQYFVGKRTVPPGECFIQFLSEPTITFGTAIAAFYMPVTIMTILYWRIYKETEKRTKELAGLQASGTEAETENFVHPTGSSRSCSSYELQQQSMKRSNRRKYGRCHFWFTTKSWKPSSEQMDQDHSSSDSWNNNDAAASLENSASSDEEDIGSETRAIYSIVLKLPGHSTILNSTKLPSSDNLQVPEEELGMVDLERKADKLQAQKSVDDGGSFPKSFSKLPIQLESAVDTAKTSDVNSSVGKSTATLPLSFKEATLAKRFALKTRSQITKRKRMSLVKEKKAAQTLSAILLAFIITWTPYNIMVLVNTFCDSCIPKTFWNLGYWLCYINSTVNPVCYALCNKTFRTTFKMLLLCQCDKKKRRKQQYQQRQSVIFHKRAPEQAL
- protocol_notes: Antagonist activity at human muscarinic M3 receptor assessed as inhibition of acetylcholine-induced calcium mobilization
- Type: functional
quantity: IC50

# molecule, IC50
data = [
    ("O=C(C1CN(S(=O)(=O)c2cccc3cnccc23)C1)N1CC2CN(c3ccncc3)CC2C1 (configuration not stated)", "> 10 µM"),
]

// fetch Muscarinic acetylcholine receptor M3 (Homo sapiens, UniProt P20309) IC50 for `O=C(C1CN(S(=O)(=O)c2cccc3cnccc23)C1)N1CCN(c2ccncc2)CC1`
> 10 µM

* * *

- system_under_test: Muscarinic acetylcholine receptor M1 (Homo sapiens) (UniProt P11229)
- Sequence (P11229 whole entry): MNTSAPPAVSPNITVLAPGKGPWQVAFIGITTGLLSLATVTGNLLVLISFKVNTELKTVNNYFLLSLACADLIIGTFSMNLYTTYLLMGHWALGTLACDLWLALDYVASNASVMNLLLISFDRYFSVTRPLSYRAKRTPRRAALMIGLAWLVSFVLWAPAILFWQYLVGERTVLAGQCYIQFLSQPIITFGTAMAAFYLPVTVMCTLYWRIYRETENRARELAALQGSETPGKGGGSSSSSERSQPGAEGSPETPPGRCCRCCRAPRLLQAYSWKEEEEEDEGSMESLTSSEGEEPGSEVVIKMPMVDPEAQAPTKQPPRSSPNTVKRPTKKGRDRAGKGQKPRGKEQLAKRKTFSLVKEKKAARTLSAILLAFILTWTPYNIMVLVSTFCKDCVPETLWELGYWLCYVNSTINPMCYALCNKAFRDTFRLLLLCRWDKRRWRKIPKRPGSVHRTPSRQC
- protocol_notes: Antagonist activity at human muscarinic M1 receptor expressed in CHO cells assessed as inhibition of acetylcholine-induced calcium mobilization at 30 uM measured after 15 mins by fluorescence analysis
- Assay type: functional, cell-based
- Design: scale not given: the % may be the effect or the level left
Could you please mark Fulfilled for values of Activity below 20% and Not fulfilled for values at or above it?

# compound, system_under_test, category_label
records = [
    ("Cc1noc(C)c1S(=O)(=O)N1CC(C(=O)N2CCN(c3ccncc3)CC2)C1", "Muscarinic acetylcholine receptor M1 (Homo sapiens) (UniProt P11229)", "Fulfilled"),
    ("Cc1nc(C(F)(F)F)c(S(=O)(=O)N2CC(C(=O)N3CCN(c4ccncc4)CC3)C2)s1", "Muscarinic acetylcholine receptor M1 (Homo sapiens) (UniProt P11229)", "Fulfilled"),
    ("O=C(C1CN(S(=O)(=O)c2cccc3ncccc23)C1)N1CC2CN(c3ccncc3)CC2C1 (stereo unspecified)", "Muscarinic acetylcholine receptor M1 (Homo sapiens) (UniProt P11229)", "Not fulfilled"),
    ("O=C(C1CN(S(=O)(=O)c2ccc3occc3c2)C1)N1CCN(c2ccncc2)CC1", "Muscarinic acetylcholine receptor M1 (Homo sapiens) (UniProt P11229)", "Fulfilled"),
    ("Cc1cc(N2CCN(C(=O)C3CN(S(=O)(=O)c4cccc5cnccc45)C3)CC2)cc(C)n1", "Muscarinic acetylcholine receptor M1 (Homo sapiens) (UniProt P11229)", "Fulfilled"),
]

Let's switch to this compound now.
In the record for O=C(C1CCN(S(=O)(=O)c2cccc3nsnc23)C1)N1CCN(c2ccncc2)CC1 (racemic) , is Activity less than 20%?
Not fulfilled

* * *

- system_under_test: UniProt:P08172
- Sequence (P08172 whole entry): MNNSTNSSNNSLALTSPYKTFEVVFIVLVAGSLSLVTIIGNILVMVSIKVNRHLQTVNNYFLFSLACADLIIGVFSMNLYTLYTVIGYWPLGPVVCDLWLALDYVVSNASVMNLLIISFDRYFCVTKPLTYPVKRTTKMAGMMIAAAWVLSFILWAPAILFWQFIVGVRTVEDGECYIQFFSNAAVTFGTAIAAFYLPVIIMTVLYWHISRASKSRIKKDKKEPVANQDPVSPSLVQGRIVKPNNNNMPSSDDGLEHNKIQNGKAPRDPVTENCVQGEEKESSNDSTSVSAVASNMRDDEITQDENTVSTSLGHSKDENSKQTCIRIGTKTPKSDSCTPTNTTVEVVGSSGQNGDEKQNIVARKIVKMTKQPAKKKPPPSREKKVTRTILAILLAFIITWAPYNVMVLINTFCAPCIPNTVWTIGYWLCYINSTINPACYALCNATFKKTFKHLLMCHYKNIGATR
- protocol_notes: Antagonist activity at human muscarinic M2 receptor assessed as inhibition of acetylcholine-induced calcium mobilization
Answer each item with its documented IC50.

# compound, quantity, data_value
data = [
    ("O=C(C1CN(S(=O)(=O)c2cccc3cnccc23)C1)N1CCN(c2ccncc2)CC1", "IC50", "> 10 µM"),
]

// moving on: another record for IC50
Which IC50 value is on record for O=C(C1CN(S(=O)(=O)c2cccc3cnccc23)C1)N1CC2CN(c3ccncc3)CC2C1 (configuration not stated) ?
> 10 µM
